Values were extracted from PubChem BioAssay (Tox21).

assay: Nuclear factor erythroid 2-related factor 2/antioxidant responsive element (Nrf2/ARE) small molecule agonists: luciferase reporter gene qHTS assay in human keratinocytes (AID 1919969); conditions: KeratinoSens HaCaT ARE-luciferase, luminescence, 24 h; series mostly up to 92.4 µM; also: nearly all actives have a fitted effect of over 35% in size
Records with an inconclusive call do not appear. Activity calls are given as the source filed them. Calls follow the shape of the full dose curve.
Possible outcomes: active, inactive

Brc1ccccc1 : inactive
C[C@@H]1CC2=CC(=O)CC[C@@H]2[C@H]2CC[C@@]3(C)[C@@H](CC[C@]3(C)O)[C@@H]21 : inactive
CN=CNc1ccc(C)cc1C : inactive
COP(=O)(OC)Oc1ccc([N+](=O)[O-])cc1 : inactive
CCCCP(CCCC)CCCC : inactive
Clc1cccc(N2CCNCC2)c1 : inactive
ClC1=C(Cl)C2(Cl)C(CBr)CC1(Cl)C2(Cl)Cl (stereo not drawn) : inactive
CC(Cc1ccc2c(c1)OCO2)NO (stereo not drawn) : inactive
Cc1cc(OC(=O)N(C)C)nn1C(=O)N(C)C : inactive
CCOC(=O)CCN(SN(C)C(=O)Oc1cccc2c1OC(C)(C)C2)C(C)C : active
Cc1ccccc1C(=O)Nc1cccc(OC(C)C)c1 : inactive
O=NN(CCO)CCO : inactive
CC(C)O.CC(C)O.OCCN(CCO)CCO.OCCN(CCO)CCO.[Ti] : inactive
